Target: T1, human TREM2 (human) (UniProt Q9NZC2)
T1 sequence (looked up): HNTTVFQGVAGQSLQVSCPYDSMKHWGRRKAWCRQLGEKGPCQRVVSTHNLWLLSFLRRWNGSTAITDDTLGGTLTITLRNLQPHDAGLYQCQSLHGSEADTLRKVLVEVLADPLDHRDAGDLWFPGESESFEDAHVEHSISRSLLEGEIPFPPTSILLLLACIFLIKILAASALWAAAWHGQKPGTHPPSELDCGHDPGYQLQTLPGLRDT
Test: 2nd screen, 10 nM Ab
attribute.measured: Binding Signal (fold over 6E7 parental antibody) (fold)
Numeric only. Scale: fold

Returns the measured Binding Signal (fold over 6E7 parental antibody) for the input binder. Input: 6E7 variant V86 (antibody, V domains shown) VH: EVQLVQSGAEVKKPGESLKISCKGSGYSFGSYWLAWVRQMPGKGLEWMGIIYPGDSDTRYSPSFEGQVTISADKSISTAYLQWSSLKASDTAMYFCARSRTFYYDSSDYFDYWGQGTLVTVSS VL: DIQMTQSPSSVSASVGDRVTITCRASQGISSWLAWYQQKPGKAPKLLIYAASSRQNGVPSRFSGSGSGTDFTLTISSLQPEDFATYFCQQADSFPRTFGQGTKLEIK 5.02

Request the reported Binding Signal (fold over 6E7 parental antibody) associated with 6E7 variant V53 (antibody, V domains shown) VH: EVQLVQSGAEVKKPGESLKISCKGSGYSFTSYWIAWVRQMPGKGLEWMGIIYPGDSDTRYSPHFQGQVTISADKSISTAYLQWSSLKASDTAMYFCARQRTFYYDSSDYFDYWGQGTLVTVSS VL: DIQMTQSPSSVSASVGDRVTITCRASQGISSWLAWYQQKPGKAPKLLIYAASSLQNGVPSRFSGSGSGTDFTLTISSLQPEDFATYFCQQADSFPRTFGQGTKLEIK 1.17

Fill in the blank: the reported Binding Signal (fold over 6E7 parental antibody) of 6E7 variant V65 (antibody, V domains shown) VH: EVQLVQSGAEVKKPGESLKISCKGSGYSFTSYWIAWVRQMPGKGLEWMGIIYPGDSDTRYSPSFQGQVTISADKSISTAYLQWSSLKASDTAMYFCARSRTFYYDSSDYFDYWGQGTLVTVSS VL: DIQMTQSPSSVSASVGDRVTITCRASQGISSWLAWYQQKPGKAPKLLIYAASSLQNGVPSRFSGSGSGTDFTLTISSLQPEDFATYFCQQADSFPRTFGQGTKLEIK is ____. 2.75
